Reference source: patent US5527810A

# target-under-test: AMPA receptor
# assay-explanation: AMPA receptor radioligand binding, displacement of [3H]AMPA (crude membranes of rat forebrain)
# experimental-setup: text summary of Table I; read-out: IC50 for displacement of 3H-AMPA, summary statement
pIC50: −log10 of the molar value.
result-type: pIC50

What value of pIC50 has been reported for the following compound? O=C(O)[C@@H]1C[C@H]2C[C@@H](c3nn[nH]n3)CC[C@H]2CN1 [Compound 2] > 5.00

----------
# target-under-test: NMDA receptor
# assay-explanation: NMDA receptor radioligand binding, displacement of [3H]CGS19755 (rat forebrain synaptosomal membranes)
# experimental-setup: text summary of Table I; read-out: IC50 for displacement of [3H]CGS19755, summary statement
result-type: IC50

Need IC50, item O=C(O)[C@@H]1C[C@H]2C[C@@H](c3nn[nH]n3)CC[C@H]2CN1 [Compound 2] < 10 µM

----------
# target-under-test: AMPA receptor
# assay-explanation: AMPA receptor radioligand binding, displacement of [3H]AMPA (crude membranes of rat forebrain)
# experimental-setup: [3H]AMPA 5 nM, 100 mM KSCN; mean ± standard error (n=3); read-out: IC50 AMPA (receptor binding)
Documented pIC50 across a set of compounds
API: returns pIC50 as number; meaning -log10 of concentration in mol/L.

>>> df
                                   compound  numeric_result
0  O=C(O)[C@@H]1C[C@H]2C[C@@H](c3nn[nH]n3)CC[C@H]2CN1 [Compound 2]            5.24

Quick one: pIC50 of O=C(O)[C@@H]1C[C@H]2C[C@@H](c3nn[nH]n3)CC[C@H]2CN1 (relative stereo) [Compound 1] ? 4.89
